The measurements presented in this section are drawn from PubChem BioAssay (NCI).

Would you mind telling me the reported growth of each entry?
Test system: MCF7 breast
Assay: NCI-60 one-dose screen, 48 h (100 = growth as untreated, 0 = no growth, -100 = all killed)
Conditions: 10 µM unless noted
Method: Growth inhibition of the MCF7 human tumor cell line is measured as a screen for anti-cancer activity. Cells are grown in 96 well plates and exposed to the test compound for 48 hours. Compounds are tested at a single concentration, which is 10^-5 M for most compounds. The reported endpoint is percent growth (GI% or GIPRCNT), where numbers from 0 - 100% represent growth inhibition, and numbers from -100% - 0 represent cell death. For example, a value of 40 represents 60% growth inhibition. […]
About 83,000 compounds went through this panel and 20% of them were active in at least one assay; those are over-represented in the sample as a whole.
Answers are plain numbers, in %.

moleculeSmiles | targetOfAssay | unitSymbol | resultValue
N#Cc1c(-c2ccc(Cl)cc2)nc(NN=Cc2cccc(O)c2)nc1N1CCOCC1 | MCF7 breast | % | 60.1
O=C(/C=C/c1ccccc1)c1cccc(OCCCOc2cccc(C(=O)/C=C/c3ccccc3)c2)c1 | MCF7 breast | % | 11.3
Cc1c(-c2nc3ccc(F)cc3c(=O)[nH]2)c2ccccc2n1C | MCF7 breast | % | 19.1
COC(=O)CNC(=O)[C@H](Cc1ccccc1)NCc1ccncc1 | MCF7 breast | % | 92.9

Count: 6. Required value per item: growth.
1. Oc1c(Cl)cc(Cl)c2ccc(Cn3cc(-c4ccc(C(F)(F)F)cc4)nn3)nc12
2. Cc1ccc(-c2nc3nc(-c4ccc(F)cc4)nc(N4CCNCC4)c3o2)cc1
3. Cn1c(=O)c2c(nc(NC3=NS(=O)(=O)c4ccccc43)n2CC(=O)N2CCc3ccccc32)n(C)c1=O
4. OB(O)c1cccc(-c2nc3ccc4[nH]ncc4c3c3c2CCCC3)c1
5. CC(C)N1CCN(Cc2ccc3c(NNC(=O)c4ccccc4)nc4cc(F)ccc4n23)CC1
6. O=C(O)c1ccc(-n2cc(/C=N/Nc3ccc(F)cc3)c(-c3cc4ccccc4oc3=O)n2)cc1

## Result
1: 29.4; 2: -74.2; 3: 103; 4: 70.1; 5: 9.7; 6: 66.1

---

Would you mind telling me the reported growth of each entry?
Tested on: 786-0 renal
Assay: NCI-60 one-dose screen, 48 h (100 = growth as untreated, 0 = no growth, -100 = all killed)
Conditions: 10 µM unless noted
The panel holds about 83,000 compounds, 20% with a hit somewhere; the sample as a whole holds those more often.
Give bare numbers, in %.

Record excerpt, results attached:
molecule | targetOfAssay | growth (%)
CN(Cc1ccc(C(F)(F)F)cc1)CC(O)C(=O)Nc1ccc(Cl)cc1 (stereo not given) | 786-0 renal | -48.4
Cn1c(=O)c2[nH]c(N/N=C/c3ccccc3Br)nc2n(C)c1=O | 786-0 renal | 96.9
CC(=O)Cc1nsc(NC(=O)c2cc(-c3cc(Cl)cc(Cl)c3)oc2C)n1 | 786-0 renal | 98
COc1ccc(-c2nc3c(c(-c4ccccc4)nn3-c3ccccc3)c(-c3ccc(N4CCN(C)CC4)cc3)c2C#N)cc1 | 786-0 renal | 78.9
N#Cc1cccc(-c2c(-c3ccc4ccccc4c3)oc3ccccc3c2=O)c1 | 786-0 renal | 35.5

Count: 5. Required value per item: growth.
1. CCN(CC)c1ccc(/C=C/C(=O)c2ccc(Nc3nc(Nc4ccccc4)nc(Nc4ccccc4)n3)cc2)cc1
2. COc1ccc(OC)c(C(=O)/C=C/c2cc3c(c(OC)c2OC)OCO3)c1
3. Cn1c(O)c(C=NCCN=Cc2c(O)n(C)c(=O)n(C)c2=O)c(=O)n(C)c1=O
4. Oc1c(Cl)cc(Cl)c2ccc(Cn3cc(-c4cc(F)cc(F)c4)nn3)nc12
5. O=C1c2cccc(NCCN=Cc3cc(O)ccc3O)c2C(=O)c2c(NCCN=Cc3cc(O)ccc3O)cccc21

## Result
61.8
100
113
95.6
0.261
